assay: acute toxicity (DL50), oral route; conditions: mouse, in vivo, souris, par voie orale
value kind: LD50

State the recorded LD50 for this entry: CNC(=O)OP(=O)(O)O [N-méthyl-carbamoylphosphate de lithium]
~3200 mg/kg

// provenance: patent EP0129628A1
